- Test system: Sam68 (KHDRBS1)
- assay_notes: Sam68 small-molecule binders, primary screen, biochemical, small-molecule microarray, 635 nm fluorescence (AID 1125);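 note: score merges 667 nm channel intensity with signal to noise over triplicate slides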
- test_parameters: small-molecule microarray binding, higher = more signal
metric: composite z-score
// no unit string in output, number only

COc1cc([C@@H]2N[C@H](C(=O)O)Cc3c2[nH]c2ccccc32)cc(OC)c1OC ... 0.0713
Cc1ccc(N2C(=O)c3ccccc3[C@](C)(C(=O)O)[C@@H]2c2ccc(CO)cc2)nc1 ... -1.17
C=CCC(OC(C)=O)[C@@H]1[C@@H](N(Cc2cccc3ccccc23)C(=O)Cc2ccc(F)cc2)c2cc(OCCCO)ccc2N1C(=O)Cc1ccc2ccccc2c1 (some centres undefined) ... -0.146

Entry `CO[C@H]1COC(=O)[C@H](C)NC(=O)CC=C[C@@H](C)[C@H](NS(=O)(=O)c2ccc(C)cc2)COC(=O)[C@@H](OCc2ccccc2)C=C[C@@H]1C` ; composite z-score = 0.133

Entry `CCOC(=O)C[C@H]1[C@H](OC(=O)c2cc3ccccc3oc2=O)[C@@H](NC(=O)C2CCCCC2)c2cc(OCCCO)ccc2N1C(=O)c1ccc2ccccc2n1` ; composite z-score = 1.06

Entry `O=C1O[C@H](c2ccccc2)[C@H](c2ccccc2)N2[C@H]1[C@@H](C(=O)Nc1nc3ccccc3s1)[C@]1(C(=O)Nc3ccc(C#CC4=CCCCC4)cc31)[C@H]2c1ccccc1OCCO` ; composite z-score = 1.3

###

- system_tested: Carbonic anhydrase 2 (Homo sapiens) (UniProt P00918)
- assay_notes: CAII small-molecule binders, profiling panel, biochemical, small-molecule microarray, Alexa647-labelled CAII (AID 1122)
- test_parameters: CAII-A647 binding fluorescence, higher = more signal
molecules and their reported composite z-score
// no unit string in output, number only

Known composite z-score results, listed for orientation:
CO[C@@H]1COC(=O)[C@@H]2CCCN2C(=O)CC=C[C@@H](C)[C@H](OC)COC(=O)[C@@H]2CCCN2C(=O)CC=C[C@H]1C ... -0.439
CC(C)[Si](OCC[C@H]1O[C@]2(C(=O)N(Cc3ccccc3)c3ccccc32)[C@@H](C)[C@@H]1[Si](C)(C)O)(C(C)C)C(C)C ... 0.191
O=C1C2C=CC(C(O)C(c3ccccc3)c3ccccc3)N(Nc3ccc([N+](=O)[O-])cc3)C2C(=O)N1c1ccccc1 (stereo not given) ... 0.733
O=C1c2ccccc2[C@@]2(Cc3ccccc3N(CC(F)(F)F)C2=O)[C@H](c2ccc(CO)cc2)N1C1CCCCC1 ... 0.807
Cc1ccc(N2C(=O)c3ccccc3[C@](C)(C(=O)O)[C@@H]2c2ccc(CO)cc2)nc1 ... 0.289

Entry O=C1C2C=CC(C(O)C#Cc3ccccc3)N(Nc3ccccc3)C2C(=O)N1c1ccccc1 (stereo not given) ; composite z-score = 0.812

Entry CC(C)C[C@@H]1NC(=O)[C@H](CC(C)C)NC(=O)[C@@]23C(=O)N[C@@H](Cc4ccccc4)C2[C@H](C)[C@@]2(C)O[C@H]2C3/C=C/CC/C=C/CNC1=O (stereo not given in full) ; composite z-score = 0.578

Entry `O=C1C[C@@](C(=O)NCCN2CCOCC2)(c2ccc([N+](=O)[O-])cc2)[C@@H](c2ccc(CO)cc2)N1C1CCCCC1` ; composite z-score = 0.656
